Target: ScPma1p (yeast plasma membrane ATPase 1) (Saccharomyces cerevisiae, UniProt P05030)
Construct: gene PMA1
Sequence (P05030 whole entry): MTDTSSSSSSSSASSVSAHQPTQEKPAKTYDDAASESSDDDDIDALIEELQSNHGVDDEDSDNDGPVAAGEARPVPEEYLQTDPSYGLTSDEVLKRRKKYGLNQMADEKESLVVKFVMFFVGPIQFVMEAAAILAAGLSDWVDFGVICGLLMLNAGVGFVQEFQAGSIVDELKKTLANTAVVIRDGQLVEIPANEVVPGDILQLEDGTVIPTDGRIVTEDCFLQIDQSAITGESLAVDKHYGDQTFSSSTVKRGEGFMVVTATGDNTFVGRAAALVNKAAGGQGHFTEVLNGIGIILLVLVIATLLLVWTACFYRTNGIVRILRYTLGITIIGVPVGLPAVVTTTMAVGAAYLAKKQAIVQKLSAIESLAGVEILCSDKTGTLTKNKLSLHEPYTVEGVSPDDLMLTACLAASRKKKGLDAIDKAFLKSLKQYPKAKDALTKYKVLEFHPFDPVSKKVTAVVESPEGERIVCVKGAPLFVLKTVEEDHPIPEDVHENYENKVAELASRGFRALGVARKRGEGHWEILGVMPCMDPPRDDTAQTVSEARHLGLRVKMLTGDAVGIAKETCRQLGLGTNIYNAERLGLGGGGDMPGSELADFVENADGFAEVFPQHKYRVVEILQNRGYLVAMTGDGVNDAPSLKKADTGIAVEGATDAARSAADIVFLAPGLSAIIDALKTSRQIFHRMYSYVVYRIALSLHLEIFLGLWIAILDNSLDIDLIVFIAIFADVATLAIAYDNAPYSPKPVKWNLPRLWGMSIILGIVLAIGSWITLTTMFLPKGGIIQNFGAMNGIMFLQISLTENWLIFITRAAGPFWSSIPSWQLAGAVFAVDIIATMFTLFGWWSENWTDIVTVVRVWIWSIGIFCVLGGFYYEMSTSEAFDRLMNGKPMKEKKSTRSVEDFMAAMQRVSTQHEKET
Experiment: cell-free vesicle-based ATP hydrolysis assay (ScPma1p-overexpressing vesicles, phosphate release)
Type: biochemical
value type: pIC50
The scale used: pIC50 is minus the common logarithm of the concentration in molar units.

Task item: Reported pIC50 for Cn1ncc2c(Nc3cccc(Cl)c3)nc(Nc3cccc(Cl)c3)nc21 : what is it?
Reply: 5.36
